Measured inhibition of individual entries
Test: blockers of ER-stress CHOP reporter expression – cell-based, unfolded protein response, luciferase reporter, primary screen (AID 2732);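 further: 0% = tunicamycin plus vehicle and 100% = wells without tunicamycin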
Conditions: CHO-K1 CHOP-promoter luciferase, tunicamycin-induced, 15-18 h; at 10 µM; active compounds read high
In all, about 220,000 compounds went through this assay and about 8,200 (3.7%) were called active. This is one part of a sample in which actives are shown more often than they occur.
Respond numerically; units are % and should not be typed.

{"COMPOUND": "O=C(CN1CCCCC1)Nc1ccccc1Cl", "inhibition [%]": 10.1}
{"COMPOUND": "CC(NC(=S)Nc1ccccc1)C(c1cccs1)N1CCOCC1 (stereo not drawn)", "inhibition [%]": -3.16}

**Query** Retrieve inhibition measured for CCOC(=O)N1CCN(C(=O)c2ccc(S(=O)(=O)c3ccc(C)cc3)c(NC(C)=O)c2)CC1 and print it.
**Result** 33.2

**Query** Retrieve inhibition measured for COC(=O)c1cc(C(=O)OCC(=O)Nc2cc(C)on2)cc([N+](=O)[O-])c1 and print it.
**Result** 4.62

meta.source: PubChem BioAssay AID2732
